- testSystem: Regulator of G-protein signaling 8 (Homo sapiens) (UniProt P57771)
- procedureSummary: small molecules altering RGS protein interactions with GNAO1 – biochemical, multiplexed beads, flow cytometry, RGS4/7/8/16/19, primary screen (AID 1504);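 note: fluorescently labeled Galpha-o bound to GDP with aluminium fluoride binding biotinylated RGS beads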
- testSettings: multiplexed bead flow cytometry, measured here: RGS8 interaction, at 10 µM
This is one part of the list.
RGS8–Galpha-o binding response by entry:

| compound | testSystem | unitAbbreviation | RGS8–Galpha-o binding response |
| --- | --- | --- | --- |
| Cc1ccc(OCC(O)CN2CCN(CC(O)COc3ccc(C)cc3Cl)CC2)c(Cl)c1 (stereo unspecified) | Regulator of G-protein signaling 8 (Homo sapiens) (UniProt P57771) | % | 165 |
| Cc1ccc(N2C(=O)C3C(c4ccccc4)(C2=O)C3(c2ccccc2)c2ccccc2)cc1 (stereo unspecified) | Regulator of G-protein signaling 8 (Homo sapiens) (UniProt P57771) | % | 23.3 |
| O=C(CN1CCOCC1)Nc1ccccc1 | Regulator of G-protein signaling 8 (Homo sapiens) (UniProt P57771) | % | 145 |
| CCOc1cc(C(=O)N2CCc3cc(OC)c(OC)cc3C2)ccc1OC(F)F | Regulator of G-protein signaling 8 (Homo sapiens) (UniProt P57771) | % | 105 |
| CCOC(=O)C1=C(c2ccccc2)N=C2SCC(=O)N2C1c1ccc(O)c(OC)c1 (stereo unspecified) | Regulator of G-protein signaling 8 (Homo sapiens) (UniProt P57771) | % | 144 |
| CCC(=O)N1CCC(C(N)=O)(N2CCCCC2)CC1 | Regulator of G-protein signaling 8 (Homo sapiens) (UniProt P57771) | % | 163 |

----------
- procedureSummary: TOR pathway RTG branch CIT2 reporter changes – S. cerevisiae, GFP fusion, multiplex flow cytometry, primary screen (AID 1870);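 note: barcoded CIT2-GFP strain pooled with four other GFP strains with rapamycin as positive control; median GFP fluorescence per well over plate mean of DMSO wells so 100% = DMSO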
- testSettings: S. cerevisiae CIT2-GFP expression, 3 h, at 10 µM, stronger effect = higher value
The source made the active and inactive calls.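 Rule for the calls: active = percent response above a set limit, the screen-wide mean plus 3 SD (cut at about 130% in these data); inactive = the rest.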
The reader will find reported percent response of DMSO control values listed item by item below.

| compound | percent response of DMSO control |
| --- | --- |
| COC(=O)c1ccc2c(c1)C(=O)/C(=C/c1ccc(O)cc1)O2 | 92% (inactive) |
| CCN(CC)CC#CCOC(=O)C(O)(c1ccccc1)C1CCCCC1 (stereo unspecified) | 110% (inactive) |
| Cc1ccc2nc(NC3=NC(CC(=O)O)C(=O)N3)nc(C)c2c1 (stereo unspecified) | 106% (inactive) |
| CCC1(c2ccccc2)NC(=S)N(c2ccc(C)c(C)c2)N1 (stereo unspecified) | 105% (inactive) |
| Cn1c(=O)[nH]c2nnc(-c3ccc(Cl)c(Cl)c3)nc2c1=O | 105% (inactive) |
| C(=C\c1ccc2ccccc2n1)/c1ccccc1 | 98.6% (inactive) |
| CC/C(=C(\c1ccc(O)cc1)c1ccc(OCCN(C)C)cc1)c1ccccc1 | 109% (inactive) |
| COC(=O)C1=C(C)NC(C)=C(C(=O)OCCN(C)Cc2ccccc2)C1c1cccc([N+](=O)[O-])c1 (stereo unspecified) | 96.5% (inactive) |
| CCCCOn1c(C)c(C(C)=O)c2c3no[n+]([O-])c3ccc21 | 97.7% (inactive) |
| CC1Cc2ccccc2N1NC(=O)c1ccc(Cl)c(S(N)(=O)=O)c1 (stereo unspecified) | 105% (inactive) |
| Cc1ccc(S(=O)(=O)n2ccnc2)cc1C | 99.6% (inactive) |
